# test.protocol: Cytotoxicity assay (CellTiter-Glo, 72 h), Jurkat
# Assay type: cell-based
# particulars: human, Jurkat cells (T lymphoma), conc 0.000190735 uM, raw data (replicates)
viability at 72 h, 0.000190735 uM by entry:
property.name: viability at 72 h, 0.000190735 uM (%)

INSERT INTO results (molecule, val) VALUES
  ('CO[C@H]1C[C@@H]2CC[C@@H](C)[C@@](O)(O2)C(=O)C(=O)N2CCCC[C@H]2C(=O)O[C@H]([C@H](C)C[C@@H]2CC[C@@H](O)[C@H](OC)C2)CC(=O)[C@H](C)/C=C(\C)[C@@H](O)CC[C@H](C)/C=C/C=C/C=C/1C', 95.1),
  ('CO[C@H]1C[C@@H]2CC[C@@H](C)[C@@](O)(O2)C(=O)C(=O)N2CCCC[C@H]2C(=O)O[C@H]([C@H](C)C[C@@H]2CC[C@@H](O)[C@H](OC)C2)CC(=O)[C@H](C)/C=C(\C)[C@@H](O)[C@@H](OC)C(=O)[C@H](C)C[C@H](C)/C=C/C=C/C=C/1C [Compound 1, rapamycin, reference compound]', 40.1),
  ('COC1CC2CCC(C)C(O)(O2)C(=O)C(=O)N2CCCCC2C(=O)OC(C(C)CC2CCC(O)C(OC)C2)CCC(C)C=C(C)C(O)C(OC)C(=O)C(C)CC(C)C=CC=CC=C1C (stereo not shown)', 86.9),
  ('COC1CC2CCC(C)C(O)(O2)C(=O)C(=O)N2CCCCC2C(=O)OC(C(C)CC2CCC(O)C(OC)C2)CC(=O)C(C)C=C(C)C(O)C(OC)C(=O)C(C)CC(C)C=CCCC=C1C (stereo not shown)', 102),
  ('CO[C@@H]1/C=C/C=C/[C@@H](C)C[C@@H](C)C(=O)C[C@H](O)/C(C)=C/[C@@H](C)C(=O)C[C@@H]([C@H](C)C[C@@H]2CC[C@@H](O)[C@H](OC)C2)OC(=O)[C@@H]2CCCCN2C(=O)C(=O)[C@]2(O)O[C@@H](CC[C@H]2C)C1', 100),
  ('CO[C@H]1C[C@@H]2CC[C@@H](C)[C@@](O)(O2)C(=O)C(=O)N2CCCC[C@H]2C(=O)O[C@H]([C@H](C)C[C@@H]2CC[C@@H](O)[C@H](OC)C2)CC(=O)[C@H](C)/C=C(\C)[C@@H](O)CC(=O)[C@H](C)C[C@H](C)/C=C/C=C(C)/C=C/1C', 101),
  ('COC1CC2CCC(C)C(O)(O2)C(=O)C(=O)N2CCCCC2C(=O)OC(C(C)CC2CCC(O)C(OC)C2)CC(=O)C(C)C=C(C)C(O)CC(=O)C(C)C=C(C)C=CC=CC=C1C (stereo not shown)', 99.4);
